# target.under.test: LPAR1 (Homo sapiens, UniProt Q92633)
# Construct: host or cells: U2OS
# Sequence (Q92633 whole entry): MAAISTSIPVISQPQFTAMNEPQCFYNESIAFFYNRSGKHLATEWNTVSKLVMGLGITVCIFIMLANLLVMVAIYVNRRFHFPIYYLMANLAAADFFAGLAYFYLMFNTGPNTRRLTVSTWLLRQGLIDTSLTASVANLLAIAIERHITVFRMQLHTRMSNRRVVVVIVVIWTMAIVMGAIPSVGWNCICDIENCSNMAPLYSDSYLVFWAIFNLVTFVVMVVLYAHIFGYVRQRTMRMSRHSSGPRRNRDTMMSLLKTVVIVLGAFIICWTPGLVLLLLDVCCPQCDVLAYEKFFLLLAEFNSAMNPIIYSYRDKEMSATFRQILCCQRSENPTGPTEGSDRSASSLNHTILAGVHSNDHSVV
# assay.details: LPAR1 FLIPR Assay
# Type: cell-based
# run.conditions: U2OS cells stably expressing LPAR1; LPA (EC80); Calcium 6 FLIPR dye; read-out: Maximum Inhibition
This listing pairs molecules with measured Emax.
Use % as the unit, but write only the number.

Completed entries (count: 5):
COc1cc(OC)c([N+](=O)[O-])c(C(=O)N(CCCCC(=O)O)CCCc2ccccc2)c1 [Example 19]; 98
COc1cc(OC)cc(C(=O)N(CCCCC(=O)O)CCCc2ccc(C)o2)c1 [Example 133]; 78
O=C(O)CCCCN(CCCc1ccccc1)C(=O)c1cccc(OC(F)(F)F)c1 [Example 26]; 50
COc1cc(C(=O)N(CCCc2cccc(F)c2)CCOCC(=O)O)cc(OC)c1C [Example 129]; 93
COc1cc(C(=O)N(CCCCC(=O)NS(=O)(=O)C2CC2)CCCc2ccccc2)cc(OC)c1C [Example 119]; 92

Asked: Need Emax of COc1cc(C(=O)N(CCCCC(=O)O)CCCc2ccc(F)cc2F)cc(OC)c1C [Example 146] , thanks.
Given back: 89

Asked: Need Emax of COc1ccc(CCCN(CCCCC(=O)O)C(=O)c2cc(OC)c(C)c(OC)c2)cc1 [Example 43] , thanks.
Given back: 55

Asked: Need Emax of Cc1nc2c(C(=O)N(CCCCC(=O)O)CCCc3ccccc3)cccc2c(=O)[nH]1 [Example 160] , thanks.
Given back: 63

Asked: Need Emax of COc1cc(C(=O)N(CCCc2ccccc2)CCSCC(=O)O)cc(OC)c1F [Example 100] , thanks.
Given back: 60

Asked: Need Emax of COc1ccc(C(=O)N(CCCCC(=O)O)CCCc2ccccc2)cc1F [Example 79] , thanks.
Given back: 13
